The reported measurements were obtained from paper PMC9599461.

# assayedSystem: NET (Homo sapiens)
# methodNotes: Stereoselective uptake into NET-overexpressing HEK293 cells
# assaySetup: NET; ratio between enantiomers, given as for (S) or for 2
valueType: Stereoselectivity Vmax (fold)
Report only the number, with the unit fold understood.

Some solved entries appear below for comparison.
NC[C@H](O)c1ccccc1 [(R)-Bisnorephedrine] :: 1.23
NCC(O)c1cccc(O)c1 (single isomer, unassigned) [Norphenylephrine-1, Norphenylephrine] :: 1.25
C[C@@H]1NCCc2cc(O)c(O)cc21 [Salsolinol-2, Salsolinol] :: 1.35
C[C@@H]1NCCc2cc(O)c(O)cc21 [Salsolinol-1, Salsolinol] :: 1.35
NC[C@@H](O)c1ccccc1 [(S)-Bisnorephedrine] :: 1.23

Now turn to the next molecule.
stdin: Quote Stereoselectivity Vmax reported for NCC(O)c1cccc(O)c1 (single isomer, unassigned) [Norphenylephrine-2, Norphenylephrine] please.
stdout: 1.25

###

# assayedSystem: NET (Homo sapiens, UniProt P23975)
# Sequence (P23975 whole entry): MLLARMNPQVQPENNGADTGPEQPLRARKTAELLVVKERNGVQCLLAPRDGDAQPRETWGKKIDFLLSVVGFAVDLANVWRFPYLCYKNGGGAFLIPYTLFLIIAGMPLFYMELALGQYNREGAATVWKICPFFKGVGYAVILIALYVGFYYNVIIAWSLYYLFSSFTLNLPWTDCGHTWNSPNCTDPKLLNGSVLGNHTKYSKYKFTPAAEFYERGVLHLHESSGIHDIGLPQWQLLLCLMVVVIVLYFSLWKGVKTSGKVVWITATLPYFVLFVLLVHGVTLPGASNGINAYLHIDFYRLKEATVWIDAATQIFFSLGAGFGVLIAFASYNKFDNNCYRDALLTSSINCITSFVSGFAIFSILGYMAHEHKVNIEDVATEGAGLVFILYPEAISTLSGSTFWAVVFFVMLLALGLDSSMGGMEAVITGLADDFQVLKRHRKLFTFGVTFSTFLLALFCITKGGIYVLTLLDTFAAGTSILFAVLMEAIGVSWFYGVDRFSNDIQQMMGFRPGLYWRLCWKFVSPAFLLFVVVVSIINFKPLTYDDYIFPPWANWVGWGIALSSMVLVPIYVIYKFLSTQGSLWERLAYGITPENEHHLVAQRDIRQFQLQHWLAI
# methodNotes: Stereoselective uptake into NET-overexpressing HEK293 cells;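 note: intracellular enantiomers quantified in cell lysates by chiral HPLC-MS/MS after a 2 min substrate incubation, with uptake normalized to total cellular protein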
# assaySetup: human, HEK293 cells stably overexpressing human NET
This listing pairs compounds with measured selectivity ratio at 2 min.
// return just the number, without any unit appended

NC[C@H](O)c1ccc(O)cc1 [(R)-Octopamine] :: 1.19

Consider the record given below.
stdin: Please report selectivity ratio at 2 min for the following compound: NC[C@@H](O)c1ccc(O)cc1 [(S)-Octopamine]
stdout: 1.19

###

# assayedSystem: OCT2 (wild-type) (Homo sapiens)
# Sequence (O15244 whole entry S270A): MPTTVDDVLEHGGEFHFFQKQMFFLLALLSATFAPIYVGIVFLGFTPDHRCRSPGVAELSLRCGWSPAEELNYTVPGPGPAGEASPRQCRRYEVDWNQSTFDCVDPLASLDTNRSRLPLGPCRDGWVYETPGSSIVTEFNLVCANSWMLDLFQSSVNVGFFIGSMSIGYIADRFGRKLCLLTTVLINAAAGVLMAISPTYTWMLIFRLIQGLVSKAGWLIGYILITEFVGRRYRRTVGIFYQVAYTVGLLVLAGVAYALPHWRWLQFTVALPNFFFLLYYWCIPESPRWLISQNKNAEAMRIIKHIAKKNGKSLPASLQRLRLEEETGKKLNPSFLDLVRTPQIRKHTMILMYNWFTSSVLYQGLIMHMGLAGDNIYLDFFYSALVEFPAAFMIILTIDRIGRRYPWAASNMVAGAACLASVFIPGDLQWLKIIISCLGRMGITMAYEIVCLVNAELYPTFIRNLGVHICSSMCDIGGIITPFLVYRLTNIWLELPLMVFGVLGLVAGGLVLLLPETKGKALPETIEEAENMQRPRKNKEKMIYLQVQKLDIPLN
# methodNotes: Stereoselective uptake into OCT2 (wild-type)-overexpressing HEK293 cells
# assaySetup: human, Stereoselectivity OCT2_WT, 100 μM racemic substance, two minutes; uptake ratio of enantiomers, given as for (R)
valueType: selectivity ratio at 2 min, 100 μM

Sample answers from the record:
NCC(O)c1cccc(O)c1 (centres unmarked) [Norphenylephrine] :: 1.54
NCC(O)c1ccccc1 (centres unmarked) [Bisnorephedrine] :: 1.1
CNC[C@H](O)c1cccc(O)c1 [Phenylephrine] :: 1.3
CNCC(O)c1ccc(O)cc1 (centres unmarked) [Synephrine] :: 1.17
NC[C@H](O)c1ccc(O)c(O)c1 [Norepinephrine] :: 2.05

stdin: Give reported selectivity ratio at 2 min, 100 μM for CNCC(O)c1ccc(O)c(OC)c1 (centres unmarked) [Metanephrine] (OCT2 (wild-type) (Homo sapiens))
stdout: 2.78

stdin: Give measured selectivity ratio at 2 min, 100 μM for CNCC(O)c1ccccc1 (centres unmarked) [Halostachine] (OCT2 (wild-type) (Homo sapiens)).
stdout: 1.42

stdin: Tell me its selectivity ratio at 2 min, 100 μM on OCT2 (wild-type) (Homo sapiens): COc1cc(C(O)CN)ccc1O (centres unmarked) [Normetanephrine]
stdout: 1.91

###

# assayedSystem: OCT1 (Homo sapiens)
# methodNotes: Stereoselective uptake into OCT1-overexpressing HEK293 cells
# assaySetup: human, Stereoselectivity Km, OCT1; ratio between enantiomers, given as for (S) or for 2 (second-eluting)
The following molecules are shown together with reported selectivity ratio at 2 min values.
Provide a numeric answer; units are not to be included.

CNC[C@@H](O)c1ccc(O)cc1 [(S)-Synephrine] :: 1.28
CNC[C@H](O)c1cccc(O)c1 [(R)-Phenylephrine] :: 1.02
CNC[C@@H](O)c1cccc(O)c1 [(S)-Phenylephrine] :: 1.02

stdin: Give reported selectivity ratio at 2 min value for CNCC(O)c1ccc(O)c(OC)c1 (single isomer, unassigned) [Metanephrine-1, Metanephrine]
stdout: 1.09

stdin: Consider the molecule CNC[C@H](O)c1ccc(O)cc1 [(R)-Synephrine] and give its recorded selectivity ratio at 2 min.
stdout: 1.28

###

# assayedSystem: DAT (Homo sapiens, UniProt Q01959)
# Sequence (Q01959 whole entry): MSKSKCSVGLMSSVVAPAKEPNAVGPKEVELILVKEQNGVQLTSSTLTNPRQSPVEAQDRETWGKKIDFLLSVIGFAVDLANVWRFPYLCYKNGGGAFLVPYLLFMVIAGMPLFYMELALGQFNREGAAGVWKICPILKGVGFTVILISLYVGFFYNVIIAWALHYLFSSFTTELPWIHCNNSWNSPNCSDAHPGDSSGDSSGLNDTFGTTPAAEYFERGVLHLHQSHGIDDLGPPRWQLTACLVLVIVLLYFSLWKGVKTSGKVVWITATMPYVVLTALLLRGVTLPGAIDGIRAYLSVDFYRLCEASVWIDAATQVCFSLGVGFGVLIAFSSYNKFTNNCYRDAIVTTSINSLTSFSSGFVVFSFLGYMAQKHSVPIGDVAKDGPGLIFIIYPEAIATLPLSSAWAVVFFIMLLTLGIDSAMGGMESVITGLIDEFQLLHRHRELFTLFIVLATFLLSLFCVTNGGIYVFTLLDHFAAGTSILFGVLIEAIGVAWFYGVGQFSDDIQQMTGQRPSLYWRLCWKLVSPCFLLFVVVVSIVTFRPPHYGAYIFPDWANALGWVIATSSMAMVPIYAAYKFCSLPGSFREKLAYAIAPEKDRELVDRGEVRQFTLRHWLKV
# methodNotes: Stereoselective uptake into DAT-overexpressing HEK293 cells;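 note: intracellular accumulation measured by chiral HPLC-MS/MS in stably transfected HEK293 cells, normalized to total protein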
# assaySetup: HEK293 cells overexpressing human DAT; racemic substrate, two minutes; net uptake
Vmax ± SEM: recorded values

stdin: Name the recorded Vmax ± SEM of the compound listed here: CNC[C@@H](O)c1ccc(O)c(O)c1 [(S)-Epinephrine]
stdout: 1226 ± 90 pmol × mg Protein^−1 × min^−1

stdin: Query Vmax ± SEM for NC[C@@H](O)c1ccccc1 [(S)-Bisnorephedrine]
stdout: 31.7 pmol × mg Protein^−1 × min^−1

stdin: Report Vmax ± SEM for CNC[C@H](O)c1cccc(O)c1 [(R)-Phenylephrine]
stdout: 613 pmol × mg Protein^−1 × min^−1

stdin: Note down Vmax ± SEM recorded for CNC[C@@H](O)c1cccc(O)c1 [(S)-Phenylephrine]
stdout: 392 pmol × mg Protein^−1 × min^−1

stdin: Please report the measured Vmax ± SEM for NC[C@H](O)c1ccc(O)c(O)c1 [(R)-Norepinephrine]
stdout: 3085 ± 81 pmol × mg Protein^−1 × min^−1

stdin: Identify measured Vmax ± SEM associated with NC[C@H](O)c1ccccc1 [(R)-Bisnorephedrine]
stdout: 27.2 pmol × mg Protein^−1 × min^−1

stdin: Give the reported Vmax ± SEM for this compound. NC[C@@H](O)c1ccc(O)c(O)c1 [(S)-Norepinephrine]
stdout: 4524 ± 122 pmol × mg Protein^−1 × min^−1

###

# assayedSystem: OCT3 (Homo sapiens, UniProt O75751)
# Sequence (O75751 whole entry): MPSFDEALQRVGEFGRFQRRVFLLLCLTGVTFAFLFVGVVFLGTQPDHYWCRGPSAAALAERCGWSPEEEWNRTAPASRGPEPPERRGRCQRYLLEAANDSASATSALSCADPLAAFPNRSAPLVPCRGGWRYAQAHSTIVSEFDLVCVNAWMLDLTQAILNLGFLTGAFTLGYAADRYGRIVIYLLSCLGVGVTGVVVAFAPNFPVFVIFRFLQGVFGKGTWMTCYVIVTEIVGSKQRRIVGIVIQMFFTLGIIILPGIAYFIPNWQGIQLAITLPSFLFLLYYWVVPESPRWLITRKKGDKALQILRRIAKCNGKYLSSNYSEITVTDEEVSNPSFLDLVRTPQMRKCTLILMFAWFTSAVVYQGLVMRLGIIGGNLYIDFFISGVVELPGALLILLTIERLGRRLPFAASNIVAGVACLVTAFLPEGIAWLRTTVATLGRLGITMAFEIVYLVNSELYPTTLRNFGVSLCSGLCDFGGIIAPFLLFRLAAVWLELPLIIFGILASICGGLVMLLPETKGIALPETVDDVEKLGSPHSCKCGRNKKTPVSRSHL
# methodNotes: Stereoselective uptake into OCT3-overexpressing HEK293 cells;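 note: intracellular accumulation in HEK293 cells measured by chiral HPLC-MS/MS after a 2 min substrate exposure at 37 °C, uptake normalized to total protein (bicinchoninic acid assay)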
# assaySetup: OCT3; ratio between enantiomers, given as for (R) or for 1 (first-eluting)
valueType: Stereoselectivity Km

stdin: Check the records and state Stereoselectivity Km for NC[C@H](O)c1ccc(O)c(O)c1 [(R)-Norepinephrine]
stdout: 1.07-fold for (R)

###

# assayedSystem: OCT2 (Homo sapiens, UniProt O15244)
# Sequence (O15244 whole entry S270A): as the sequence (O15244 whole entry S270A) above
# methodNotes: Stereoselective uptake into OCT2 (wild-type)-overexpressing HEK293 cells
# assaySetup: OCT2; quotient of vmax over Km
Property: Clint ± SEM; scope: individual compounds

NC[C@H](O)c1ccc(O)c(O)c1 [(R)-Norepinephrine] :: 3.81 ± 1.30 mL × g Protein^−1 × min^−1

stdin: Return value of Clint ± SEM for input CNCC(O)c1ccccc1 (stereo not drawn) [Halostachine-1, Halostachine] , no commentary.
stdout: 25.7 mL × g Protein^−1 × min^−1

stdin: Let me know recorded Clint ± SEM for CNC[C@@H](O)c1ccc(O)c(O)c1 [(S)-Epinephrine] , thanks.
stdout: 6.83 ± 2.57 mL × g Protein^−1 × min^−1

###

# assayedSystem: UniProt:O15245
# methodNotes: Stereoselective uptake into OCT1-overexpressing HEK293 cells
# assaySetup: human, Stereoselectivity Km, OCT1; ratio between enantiomers, given as for (R) or for 1 (first-eluting)
valueType: selectivity ratio at 2 min

COc1cc(C(O)CN)ccc1O (single isomer, unassigned) :: 1.59

Pending compound:
stdin: Please indicate recorded selectivity ratio at 2 min of NCC(O)c1cccc(O)c1 (single isomer, unassigned) measured with UniProt:O15245.
stdout: 1.03

###

The following compounds are shown together with reported selectivity ratio at 2 min values.
# assayedSystem: OCT2 (Homo sapiens, UniProt O15244)
# methodNotes: Stereoselective uptake into OCT2 (wild-type)-overexpressing HEK293 cells
# assaySetup: human, Stereoselectivity ClInt, OCT2; ratio between enantiomers, given as for (S) or for 2
// return just the number, without any unit appended

CNC[C@H](O)c1cccc(O)c1 [(R)-Phenylephrine] :: 1.02

stdin: Input CNC[C@H](O)c1ccc(O)cc1 [(R)-Synephrine] , output reported selectivity ratio at 2 min.
stdout: 1.01

stdin: Provide selectivity ratio at 2 min value for the following compound: CNC[C@@H](O)c1ccc(O)cc1 [(S)-Synephrine]
stdout: 1.01

stdin: Please give measured selectivity ratio at 2 min of the following entry: CNC[C@@H](O)c1cccc(O)c1 [(S)-Phenylephrine]
stdout: 1.02

###

Listed next: entries and their corresponding Clint ± SEM.
# assayedSystem: OCT2 (Homo sapiens)
# methodNotes: Stereoselective uptake into OCT2 (wild-type)-overexpressing HEK293 cells
# assaySetup: OCT2; quotient of vmax over Km

Below, 3 compounds whose answers are already recorded.
NC[C@@H](O)c1ccc(O)c(O)c1 [(S)-Norepinephrine] :: 2.32 ± 0.71 mL × g Protein^−1 × min^−1
NCC(O)c1cccc(O)c1 (single isomer, unassigned) [Norphenylephrine-2, Norphenylephrine] :: 26.07 mL × g Protein^−1 × min^−1
CNC[C@@H](O)c1cccc(O)c1 [(S)-Phenylephrine] :: 27.3 mL × g Protein^−1 × min^−1

stdin: Give the reported value of Clint ± SEM for this record: C[C@@H]1NCCc2cc(O)c(O)cc21 [Salsolinol-2, Salsolinol]
stdout: 42.7 mL × g Protein^−1 × min^−1

###

# assayedSystem: OCT1 (Homo sapiens, UniProt O15245)
# Sequence (O15245 1-554): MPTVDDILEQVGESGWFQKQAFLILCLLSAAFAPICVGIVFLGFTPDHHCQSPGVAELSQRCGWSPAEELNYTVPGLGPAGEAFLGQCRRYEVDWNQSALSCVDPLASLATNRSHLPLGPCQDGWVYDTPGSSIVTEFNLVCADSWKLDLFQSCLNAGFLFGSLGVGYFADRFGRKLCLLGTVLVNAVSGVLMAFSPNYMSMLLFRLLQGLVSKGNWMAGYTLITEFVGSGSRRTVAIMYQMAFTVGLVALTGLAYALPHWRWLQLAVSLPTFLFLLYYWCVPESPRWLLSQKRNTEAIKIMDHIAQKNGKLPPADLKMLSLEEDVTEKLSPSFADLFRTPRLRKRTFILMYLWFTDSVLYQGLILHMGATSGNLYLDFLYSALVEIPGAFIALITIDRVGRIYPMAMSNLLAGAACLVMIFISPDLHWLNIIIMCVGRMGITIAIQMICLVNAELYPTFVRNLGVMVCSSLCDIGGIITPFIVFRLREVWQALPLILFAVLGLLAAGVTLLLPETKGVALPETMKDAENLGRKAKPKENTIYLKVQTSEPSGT
# methodNotes: Stereoselective uptake into OCT1-overexpressing HEK293 cells;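 note: enantiomers quantified inside cells by chiral HPLC-MS/MS, uptake normalized to total protein from bicinchoninic acid assay, substrates applied in HBSS+ buffer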
# assaySetup: OCT1; ratio between enantiomers, given as for (R) or for 1
valueType: Stereoselectivity Vmax (fold)
Supply the numeric figure in fold, leaving out any unit text.

Consider the reported Stereoselectivity Vmax for these molecules:
NC[C@@H](O)c1ccccc1 [(S)-Bisnorephedrine] :: 1.19
NC[C@H](O)c1ccccc1 [(R)-Bisnorephedrine] :: 1.19

stdin: Identify Stereoselectivity Vmax associated with the molecule COc1cc(C(O)CN)ccc1O (single isomer, unassigned)
stdout: 1.47

stdin: Provide only the value of recorded Stereoselectivity Vmax for CNCC(O)c1ccc(O)c(OC)c1 (single isomer, unassigned)
stdout: 1.06

stdin: Tell me its Stereoselectivity Vmax given NCC(O)c1cccc(O)c1 (single isomer, unassigned) as the entry.
stdout: 1.08
